- system_name: T1, Aggregatibacter actinomycetemcomitans leukotoxin (LtxA) (Aggregatibacter actinomycetemcomitans …, UniProt P16462 1-1055)
- T1 sequence: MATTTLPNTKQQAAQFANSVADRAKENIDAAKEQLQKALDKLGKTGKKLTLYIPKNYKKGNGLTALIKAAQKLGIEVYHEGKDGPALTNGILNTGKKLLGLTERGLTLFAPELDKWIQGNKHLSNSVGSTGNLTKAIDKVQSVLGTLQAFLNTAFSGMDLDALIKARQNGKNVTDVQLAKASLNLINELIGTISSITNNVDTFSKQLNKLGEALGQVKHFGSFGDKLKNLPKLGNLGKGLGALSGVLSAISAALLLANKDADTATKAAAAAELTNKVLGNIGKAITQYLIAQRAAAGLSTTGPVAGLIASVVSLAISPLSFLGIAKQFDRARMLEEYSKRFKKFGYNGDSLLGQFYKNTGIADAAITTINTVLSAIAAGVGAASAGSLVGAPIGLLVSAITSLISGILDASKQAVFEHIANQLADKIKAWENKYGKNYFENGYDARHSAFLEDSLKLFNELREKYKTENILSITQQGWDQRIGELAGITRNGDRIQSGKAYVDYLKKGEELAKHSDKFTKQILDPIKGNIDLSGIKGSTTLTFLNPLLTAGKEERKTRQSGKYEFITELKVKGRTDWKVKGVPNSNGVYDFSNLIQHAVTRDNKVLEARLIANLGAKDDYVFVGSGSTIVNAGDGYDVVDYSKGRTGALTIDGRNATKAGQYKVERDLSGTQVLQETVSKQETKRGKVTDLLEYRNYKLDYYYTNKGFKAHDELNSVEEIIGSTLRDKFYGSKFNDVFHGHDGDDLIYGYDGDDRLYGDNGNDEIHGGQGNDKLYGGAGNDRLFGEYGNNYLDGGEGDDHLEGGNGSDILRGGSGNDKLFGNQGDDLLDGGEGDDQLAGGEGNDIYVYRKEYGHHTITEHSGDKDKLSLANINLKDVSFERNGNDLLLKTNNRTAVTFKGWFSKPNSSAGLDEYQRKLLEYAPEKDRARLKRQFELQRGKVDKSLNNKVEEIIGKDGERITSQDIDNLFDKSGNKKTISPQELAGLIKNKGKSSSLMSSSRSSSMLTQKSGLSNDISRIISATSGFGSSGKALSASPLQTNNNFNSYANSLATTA
- experiment_summary: SPR
property: koff (s⁻¹)
State just the number; it will be interpreted in s⁻¹.

Past entries and their recorded results:
{"binder": "CKVGFFKRQYKEMMEEANGQIAPENGTQTPSPPSEK [αX cytoplasmic tail peptide (integrin αX)]", "koff, s⁻¹": 0.022}
{"binder": "CLKSQWNNDNPLFKSATTTVMNPKFAES [β2C peptide (C-terminal part of the β2 cytoplasmic tail)]", "koff, s⁻¹": 0.00031}
{"binder": "αL cytoplasmic tail peptide (integrin αL, LFA-1 α subunit) (peptide) peptide: CKVGFFKRNLKEKMEAGRGVPNGIPAEDSEQLASGQEAGDPGSLKPLHEKDSESGGGKD", "koff, s⁻¹": 0.00012}
{"binder": "CKALIHLSDLREYRRFEKEKLKSQWNN [β2N2 peptide (longer N-terminal part of the β2 cytoplasmic tail, with WNN)]", "koff, s⁻¹": 0.00013}
{"binder": "CKALIHLSDLREYRRFEKEKLKSQ [β2N peptide (N-terminal part of the β2 cytoplasmic tail)]", "koff, s⁻¹": 0.00063}
{"binder": "CKALIHLSDLREYRRFEKEKLKSQWNNDNPLFKSATTTVMNPKFAES [β2 cytoplasmic tail peptide (integrin β2, LFA-1 β subunit)]", "koff, s⁻¹": 0.0001}
{"binder": "CKLLITIHDRKEFAKFEEERARAKWDTANNPLYKEATSTFTNITYRGT [β3 cytoplasmic tail peptide (integrin β3)]", "koff, s⁻¹": 0.0059}
{"binder": "CKVGFFKRNLKEKMEAGRGVPNGI [αLN peptide (N-terminal, membrane-proximal part of the αL cytoplasmic tail)]", "koff, s⁻¹": 0.00013}

Moving on to the next binder.
Incoming: Quick one: koff for CKLGFFKRQYKDMMSEGGSPGAEPQ [αM cytoplasmic tail peptide (integrin αM)] ?
Outgoing: 0.011

Provenance of the data: paper PMC6657692
